Tested on: S. pneumoniae
Test: MIC, broth microdilution
Type: cell-based, Streptococcus pneumoniae
Details: S. pneumoniae PU09, mef
measuredMetric: MIC (µg/mL)

Form field: reported MIC of CC[C@H]1OC(=O)[C@H](C)[C@@H](OC(=O)NCCCCCCc2ccc3c(c2)c(=O)c(C(N)=O)cn3C2CC2)[C@H](C)[C@@H](O[C@@H]2O[C@H](C)C[C@H](N(C)C)[C@H]2O)[C@](C)(OC)C[C@@H](C)C(=NOC)[C@H](C)[C@H]2OC(=O)O[C@@]21C [60b]
1

P: CC[C@H]1OC(=O)[C@H](C)[C@@H](OC(=O)NCCCCCc2ccc3c(c2)c(=O)c(C(N)=O)cn3C2CC2)[C@H](C)[C@@H](O[C@@H]2O[C@H](C)C[C@H](N(C)C)[C@H]2O)[C@](C)(OC)C[C@@H](C)C(=NOC)[C@H](C)[C@H]2OC(=O)O[C@@]21C [59b]
Q: CC[C@H]1OC(=O)[C@H](C)[C@@H](OC(=O)NCCOCCC#Cc2ccc3c(=O)c(C(=O)O)cn(C4CC4)c3c2)[C@H](C)[C@@H](O[C@@H]2O[C@H](C)C[C@H](N(C)C)[C@H]2O)[C@](C)(OC)C[C@@H](C)C(=NOC)[C@H](C)[C@H]2OC(=O)O[C@@]21C [70c]
Between P and Q , whose measured MIC reads higher? Mark your answer with the label of the selected entry.
P
(P: 1 µg/mL, Q: 0.06 µg/mL)

* * *

Tested on: S. pneumoniae
Test: MIC, broth microdilution
Type: cell-based, Streptococcus pneumoniae
Conditions: S. pneumoniae 21D020, Clinical, c-ermB, mef
measuredMetric: MIC (µg/mL)
Output spec: scalar in µg/mL, unitless text.

# count of solved cases: 2
Form field: reported MIC of CC[C@H]1OC(=O)[C@H](C)[C@@H](OC(=O)NCCCCCCC#Cc2ccc3c(=O)c(C(=O)O)cn(C)c3c2)[C@H](C)[C@@H](O[C@@H]2O[C@H](C)C[C@H](N(C)C)[C@H]2O)[C@](C)(OC)C[C@@H](C)C(=O)[C@H](C)[C@H]2NC(=O)O[C@@]21C [MCX-219]
0.03

Proceed to CC[C@H]1OC(=O)[C@H](C)[C@@H](OC(=O)NCCCOCCC#Cc2ccc3c(=O)c(C(=O)O)cn(C)c3c2)[C@H](C)[C@@H](O[C@@H]2O[C@H](C)C[C@H](N(C)C)[C@H]2O)[C@](C)(OC)C[C@@H](C)C(=O)[C@H](C)[C@H]2NC(=O)O[C@@]21C [MCX-190]
0.25

***
Form field: reported MIC of CC[C@H]1OC(=O)[C@H](C)C(=O)[C@H](C)[C@@H](O[C@@H]2O[C@H](C)C[C@H](N(C)C)[C@H]2O)[C@](C)(OC)C[C@@H](C)C(=O)[C@H](C)[C@H]2N(CCCCn3cnc(-c4cccnc4)c3)C(=O)O[C@]12C [telithromycin, reference compound]
0.25

* * *

Tested on: S. aureus
Assay: MIC, broth microdilution
Type: cell-based, Staphylococcus aureus
Conditions: S. aureus 15B196, c-ermB
measuredMetric: MIC (µg/mL)

# count of solved cases: 2
Return MIC measured with S. aureus given this compound: CC[C@H]1OC(=O)[C@H](C)[C@@H](OC(=O)NCCOCCC#Cc2ccc3c(=O)c(C(=O)O)cn(C4CC4)c3c2)[C@H](C)[C@@H](O[C@@H]2O[C@H](C)C[C@H](N(C)C)[C@H]2O)[C@](C)(O)C[C@@H](C)CN(C)[C@H](C)[C@H]2OC(=O)O[C@@]21C [116c]
512

Proceed to CC[C@H]1OC(=O)[C@H](C)[C@@H](OC(=O)NCCOCCC#Cc2ccc3c(c2)c(=O)c(C(=O)O)cn3C2CC2)[C@H](C)[C@@H](O[C@@H]2O[C@H](C)C[C@H](N(C)C)[C@H]2O)[C@](C)(O)C[C@@H](C)CN(C)[C@H](C)[C@H]2OC(=O)O[C@@]21C [116a]
512

P: CC[C@H]1OC(=O)[C@H](C)[C@@H](OC(=O)NCCCCCCC#Cc2ccc3c(=O)c(C(=O)O)cn(C4CC4)c3c2)[C@H](C)[C@@H](O[C@@H]2O[C@H](C)C[C@H](N(C)C)[C@H]2O)[C@](C)(O)C[C@@H](C)CN(C)[C@H](C)[C@H]2OC(=O)O[C@@]21C [111c]
Q: CC[C@H]1OC(=O)[C@H](C)[C@@H](OC(=O)NCCCCC#Cc2ccc3c(c2)c(=O)c(C(=O)O)cn3C2CC2)[C@H](C)[C@@H](O[C@@H]2O[C@H](C)C[C@H](N(C)C)[C@H]2O)[C@](C)(O)C[C@@H](C)CN(C)[C@H](C)[C@H]2OC(=O)O[C@@]21C [109a]
R: CC[C@H]1OC(=O)[C@H](C)[C@@H](OC(=O)NCCCOCCC#Cc2ccc3c(c2)c(=O)c(C(=O)O)cn3C2CC2)[C@H](C)[C@@H](O[C@@H]2O[C@H](C)C[C@H](N(C)C)[C@H]2O)[C@](C)(O)C[C@@H](C)CN(C)[C@H](C)[C@H]2OC(=O)O[C@@]21C [117a]
Form: Sort by [MIC] Order [ ascending ] API: response body holds the labels in the requested order.
P, Q, R
(P: 16 µg/mL, Q: 256 µg/mL, R: 512 µg/mL)

* * *

System: S. pneumoniae
Experiment: MIC, broth microdilution
Format: cell-based, Streptococcus pneumoniae
Details: Streptococcus pneumoniae, S. pneumoniae 05O173, c-ermB, mef; read-out: MIC
measuredMetric: MIC (µg/mL)

A: CC[C@H]1OC(=O)[C@H](C)[C@@H](OC(=O)NCCCOCCC#Cc2ccc3c(=O)c(C(=O)O)cn(CC)c3c2)[C@H](C)[C@@H](O[C@@H]2O[C@H](C)C[C@H](N(C)C)[C@H]2O)[C@](C)(OC)C[C@@H](C)C(=O)[C@H](C)[C@H]2NC(=O)O[C@@]21C [95f]
B: CC[C@H]1OC(=O)[C@H](C)[C@@H](OC(=O)NCCCCOCCC#Cc2ccc3c(=O)c(C(=O)O)cn(C)c3c2)[C@H](C)[C@@H](O[C@@H]2O[C@H](C)C[C@H](N(C)C)[C@H]2O)[C@](C)(OC)C[C@@H](C)C(=O)[C@H](C)[C@H]2NC(=O)O[C@@]21C [96g]
Given A and given B , which shows the smaller recorded MIC? Mark your answer with the label of the selected entry.
A

* * *

Test system: S. pneumoniae
Experiment: MIC, broth microdilution
Format: cell-based, Streptococcus pneumoniae
Settings: S. pneumoniae ATCC49619
Examples of compounds with documented MIC follow.
Output spec: scalar in µg/mL, unitless text.

Form field: reported MIC of CC[C@H]1OC(=O)[C@H](C)[C@@H](OC(=O)NCCCOCCC#Cc2ccc3c(=O)c(C(=O)O)cn(C)c3c2)[C@H](C)[C@@H](O[C@@H]2O[C@H](C)C[C@H](N(C)C)[C@H]2O)[C@](C)(OC)C[C@@H](C)C(=O)[C@H](C)[C@H]2NC(=O)O[C@@]21C
0.016

Now let's try a different one.
Form field: reported MIC of CC[C@H]1OC(=O)[C@H](C)[C@@H](O[C@H]2C[C@@](C)(OC)[C@@H](O)[C@H](C)O2)[C@H](C)[C@@H](O[C@@H]2O[C@H](C)C[C@H](N(C)C)[C@H]2O)[C@](C)(OC)C[C@@H](C)C(=O)[C@H](C)[C@@H](O)[C@]1(C)O [clarithromycin, reference compound]
0.12

* * *

Test system: S. pneumoniae
Assay: MIC, broth microdilution
Format: cell-based, Streptococcus pneumoniae
Details: Streptococcus pneumoniae, S. pneumoniae 05O173, c-ermB, mef; read-out: MIC
Examples of compounds with documented MIC follow.
Output spec: scalar in µg/mL, unitless text.

Form field: reported MIC of CCOC(=O)c1cn(C)c2cc(C#CCCCCCCNC(=O)O[C@H]3[C@H](C)[C@@H](O[C@@H]4O[C@H](C)C[C@H](N(C)C)[C@H]4O)[C@](C)(OC)C[C@@H](C)C(=O)[C@H](C)[C@H]4NC(=O)O[C@]4(C)[C@@H](CC)OC(=O)[C@@H]3C)ccc2c1=O [88h]
64

Now let's try a different one.
Form field: reported MIC of CC[C@H]1OC(=O)[C@H](C)C(=O)[C@H](C)[C@@H](O[C@@H]2O[C@H](C)C[C@H](N(C)C)[C@H]2O)[C@](C)(OC)C[C@@H](C)C(=O)[C@H](C)[C@H]2N(CCCCn3cnc(-c4cccnc4)c3)C(=O)O[C@]12C [telithromycin, reference compound]
4

* * *

Examples of compounds with documented clearance follow.
Experiment: In vivo pharmacokinetic study
Design: species or system SD rats
Details: male, SD (Sprague-Dawley), rat, plasma, iv, 5 mg/kg
Output spec: scalar in L/h/kg, unitless text.

Form field: reported clearance of CC[C@H]1OC(=O)[C@H](C)[C@@H](OC(=O)NCCCCCCC#Cc2ccc3c(=O)c(C(=O)O)cn(C)c3c2)[C@H](C)[C@@H](O[C@@H]2O[C@H](C)C[C@H](N(C)C)[C@H]2O)[C@](C)(OC)C[C@@H](C)C(=O)[C@H](C)[C@H]2NC(=O)O[C@@]21C
0.733

***
Form field: reported clearance of CCOC(=O)c1cn(C)c2cc(C#CCCCCCCNC(=O)O[C@H]3[C@H](C)[C@@H](O[C@@H]4O[C@H](C)C[C@H](N(C)C)[C@H]4O)[C@](C)(OC)C[C@@H](C)C(=O)[C@H](C)[C@H]4NC(=O)O[C@]4(C)[C@@H](CC)OC(=O)[C@@H]3C)ccc2c1=O [88h]
2.79
